- System: 945468-187-T-J2-PDC spheroids viability;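 also: spheroids exposed to compounds for seven days before reading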
- ASSAY: Anticancer human tumor 945468-187-T-J2-PDC patient-derived rectal carcinoma cell line growth inhibition [PI3K]
- STATED_CONDITIONS: second compound 1 µM; first compound 0.316 µM; active compounds read low; spheroids with HUVEC and MSC
Task for the reader: assign each of the following compounds its reported viability, T/C.
Report as a plain number; the unit % is understood.

Task item: Could you please provide reported viability, T/C for CCCS(=O)(=O)Nc1ccc(F)c(C(=O)c2c[nH]c3ncc(-c4ccc(Cl)cc4)cc23)c1F + CC(Nc1ccc2c(c1)OCCn1cc(N3C(=O)OCC3C(F)F)nc1-2)C(N)=O ? Thanks!
Reply: 77.4

Task item: Could you please provide reported viability, T/C for C=CC(=O)N1CCN(c2nc(=O)n(-c3c(C)ccnc3C(C)C)c3nc(-c4c(O)cccc4F)c(F)cc23)C(C)C1 (stereo not given) + CC(Nc1ncnc2nc[nH]c12)c1cc2cccc(Cl)c2c(=O)n1-c1ccccc1 ? Thanks!
Reply: 113

Task item: Could you please provide reported viability, T/C for C[C@@H](NC(=O)c1ncnc(N)c1Cl)c1ncc(C(=O)Nc2cc(C(F)(F)F)c(Cl)cn2)s1 + COc1c(OCCCN2CCOCC2)ccc2c3n(c(=NC(=O)c4cnc(N)nc4)nc12)CCN3 ? Thanks!
Reply: 25.6

Task item: Could you please provide reported viability, T/C for C[C@@H](NC(=O)c1ncnc(N)c1Cl)c1ncc(C(=O)Nc2cc(C(F)(F)F)c(Cl)cn2)s1 + Cc1nc(NC(=O)N2CCCC2C(N)=O)sc1-c1ccnc(C(C)(C)C(F)(F)F)c1 ? Thanks!
Reply: 99

Task item: Could you please provide reported viability, T/C for CC1(C)CCC(CN2CCN(c3ccc(C(=O)NS(=O)(=O)c4ccc(NCC5CCOCC5)c([N+](=O)[O-])c4)c(Oc4cnc5[nH]ccc5c4)c3)CC2)=C(c2ccc(Cl)cc2)C1 + COc1c(OCCCN2CCOCC2)ccc2c3n(c(=NC(=O)c4cnc(N)nc4)nc12)CCN3 ? Thanks!
Reply: 19.4

Task item: Could you please provide reported viability, T/C for CCN1CCN(Cc2ccc(Nc3ncc(F)c(-c4cc(F)c5nc(C)n(C(C)C)c5c4)n3)nc2)CC1 + CC(Nc1ccc2c(c1)OCCn1cc(N3C(=O)OCC3C(F)F)nc1-2)C(N)=O ? Thanks!
Reply: 51

Task item: Could you please provide reported viability, T/C for Cn1ncc(Cl)c1-c1cc(C(=O)NC(CN)Cc2cccc(F)c2)sc1Cl (stereo not given) + CC(Nc1ncnc2nc[nH]c12)c1cc2cccc(Cl)c2c(=O)n1-c1ccccc1 ? Thanks!
Reply: 106

Task item: Could you please provide reported viability, T/C for Cn1nccc1Nc1nccc(-c2ccn(C(CO)c3ccc(Cl)c(F)c3)c(=O)c2)n1 (stereo not given) + COc1c(OCCCN2CCOCC2)ccc2c3n(c(=NC(=O)c4cnc(N)nc4)nc12)CCN3 ? Thanks!
Reply: 21.8

Task item: Could you please provide reported viability, T/C for C#Cc1c(F)ccc2cc(O)cc(-c3ncc4c(N5CC6CCC(C5)N6)nc(OCC56CCCN5CC(F)C6)nc4c3F)c12 (stereo not given) + COc1c(OCCCN2CCOCC2)ccc2c3n(c(=NC(=O)c4cnc(N)nc4)nc12)CCN3 ? Thanks!
Reply: 18.1

Task item: Could you please provide reported viability, T/C for Cn1nccc1Nc1nccc(-c2ccn(C(CO)c3ccc(Cl)c(F)c3)c(=O)c2)n1 (stereo not given) + Cc1nc(NC(=O)N2CCCC2C(N)=O)sc1-c1ccnc(C(C)(C)C(F)(F)F)c1 ? Thanks!
Reply: 104
